The molecules listed here are annotated with their IC50.
System: Leishmania infantum
Experiment: Antileishmanial activity against intracellular amastigote stage of Leishmania infantum MHOM/MA/67/ITMAP-263 expressing luciferase infected in mouse J774A1 cells assessed as inhibition of metabolic activity after 120 hrs by luminescence assay
Type: functional, organism-based
Conditions: MHOM/MA/67/ITMAP-263, J774.A1, 120 h

{"molecule": "CCCCCCCCCCCCCCCCOP(=O)([O-])OCC[N+](C)(C)C [MILTEFOSINE]", "readingQualifier": "=", "IC50 (µM)": 4.2}
{"molecule": "O=c1cc(-c2ccc(Br)cc2)c2cccc([N+](=O)[O-])c2[nH]1", "readingQualifier": ">", "IC50 (µM)": 20}
{"molecule": "O=c1cc(-c2ccc(C(F)(F)F)cc2)c2cccc([N+](=O)[O-])c2[nH]1", "readingQualifier": "=", "IC50 (µM)": 11.8}
{"molecule": "N=C(N)c1ccc(OCCCCCOc2ccc(C(=N)N)cc2)cc1 [PENTAMIDINE]", "readingQualifier": ">", "IC50 (µM)": 20}
{"molecule": "C[C@@H]1[C@H](O)[C@@H](C)/C=C/C=C/C=C/C=C/C=C/C=C/C=C/[C@H](O[C@@H]2O[C@H](C)[C@@H](O)[C@H](N)[C@@H]2O)C[C@@H]2O[C@](O)(C[C@@H](O)C[C@@H](O)[C@H](O)CC[C@@H](O)C[C@@H](O)CC(=O)O[C@H]1C)C[C@H](O)[C@H]2C(=O)O [AMPHOTERICIN B]", "readingQualifier": "=", "IC50 (µM)": 0.06}

---

Test system: Leishmania donovani
Assay: Antileishmanial activity against promastigote stage of Leishmania donovani MHOM/IN/00/DEVI assessed as inhibition of metabolic activity after 72 hrs by MTT assay
Format: functional, organism-based
Conditions: Leishmania donovani, MHOM/IN/00/DEVI, 72 h; read-out: IC50
quantityKind: IC50

{"smilesData": "COc1cccc(C#Cc2cc(=O)[nH]c3c([N+](=O)[O-])cccc23)c1", "reportedValue": "> 10 µM"}
{"smilesData": "Nc1cccc2ccc(=O)[nH]c12", "reportedValue": "> 50 µM"}
{"smilesData": "Cc1ccc(-c2cc(=O)[nH]c3c([N+](=O)[O-])cccc23)s1", "reportedValue": "> 5 µM"}
{"smilesData": "O=c1cc(-c2ccco2)c2cccc([N+](=O)[O-])c2[nH]1", "reportedValue": "> 5 µM"}

---

The molecules listed here are annotated with their pIC50.
System: Leishmania donovani
Experiment: Antileishmanial activity against promastigote stage of Leishmania donovani MHOM/IN/00/DEVI assessed as inhibition of metabolic activity after 72 hrs by MTT assay
Assay type: functional, organism-based
Settings: Leishmania donovani, MHOM/IN/00/DEVI, 72 h; read-out: IC50
pIC50: −log10 of the molar value.
quantityKind: pIC50

{"smilesData": "O=c1cc(-c2cccnc2)c2cccc([N+](=O)[O-])c2[nH]1", "reportedValue": "< 4.30"}
{"smilesData": "CC(C)(C)OCc1cc(=O)[nH]c2c([N+](=O)[O-])cccc12", "reportedValue": "< 4.30"}
{"smilesData": "O=c1cc(-c2cccc(C(F)(F)F)c2)c2cccc([N+](=O)[O-])c2[nH]1", "reportedValue": "< 5.30"}
{"smilesData": "O=[N+]([O-])c1cccc2c(Br)cc(Br)nc12", "reportedValue": "< 4.30"}
